# system_tested: Beta-1 adrenergic receptor (Homo sapiens); also: assay procedure not described here
# Sequence (P08588 whole entry): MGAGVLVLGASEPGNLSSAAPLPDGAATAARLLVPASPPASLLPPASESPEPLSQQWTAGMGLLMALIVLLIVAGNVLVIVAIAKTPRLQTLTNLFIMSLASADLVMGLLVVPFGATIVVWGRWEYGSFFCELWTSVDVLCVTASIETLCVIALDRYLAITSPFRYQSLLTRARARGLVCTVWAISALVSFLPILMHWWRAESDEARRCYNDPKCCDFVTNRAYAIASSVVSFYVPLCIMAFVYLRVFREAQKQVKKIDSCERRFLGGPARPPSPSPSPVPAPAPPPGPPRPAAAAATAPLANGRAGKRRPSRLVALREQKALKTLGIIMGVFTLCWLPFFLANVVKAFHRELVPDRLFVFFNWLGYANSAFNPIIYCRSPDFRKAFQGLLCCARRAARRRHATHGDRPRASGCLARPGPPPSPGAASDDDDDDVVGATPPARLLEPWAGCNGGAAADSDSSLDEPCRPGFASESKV
# Assay type: functional
Here, each record is paired with measured AC50 data.

Recorded AC50, per entry:
# compound, AC50
measured = [
    ("CN(C)CCC=C1c2ccccc2C=Cc2ccccc21", "> 10 µM"),
    ("Cc1nnc2n1-c1ccc(Cl)cc1C(c1ccccc1Cl)=NC2", "> 10 µM"),
    ("CCCCCCOc1ccccc1C(N)=O [EXALAMIDE]", "> 30 µM"),
    ("CCC(C)n1ncn(-c2ccc(N3CCN(c4ccc(OCC5COC(Cn6cncn6)(c6ccc(Cl)cc6Cl)O5)cc4)CC3)cc2)c1=O (stereo unspecified)", "> 30 µM"),
]

Req: // fetch AC50 given entry COc1ccc2c3c1O[C@H]1[C@@H](O)C=C[C@H]4[C@@H](C2)N(C)CC[C@@]341
Resp: 0.9 µM

Req: Specify measured AC50 for CC1(C)O[C@@H]2C[C@H]3[C@@H]4CCC5=CC(=O)C=C[C@]5(C)[C@H]4[C@@H](O)C[C@]3(C)[C@]2(C(=O)CO)O1 [DESONIDE] .
Resp: > 10 µM

Req: Provide only the value of recorded AC50 for O=P1(NCCCl)OCCCN1CCCl (stereo unspecified) [IFOSFAMIDE]
Resp: > 30 µM

Req: Annotate the compound CCC(CC)(CC(=O)Nc1cccc(/C=C/c2nc(C3CCC3)cs2)c1)C(=O)O with its measured AC50.
Resp: 14 µM

Req: Identify measured AC50 corresponding to COc1ccc(CC(C)(C)NC[C@H](O)c2cc(O)cc3c2OCC(=O)N3)cc1
Resp: 0.58 µM

Req: Please list AC50 recorded for the compound CN(C)CCC(c1ccc(Cl)cc1)c1ccccn1 (stereo unspecified)
Resp: > 10 µM

Req: Give AC50 for Brc1c(NC2=NCCN2)ccc2nccnc12
Resp: > 30 µM
